# Test system: HARA
# ASSAY EXPLANATION: relative viability (nuclei count vs DMSO), 5 days (fraction); higher = more cells survive
# MEASUREMENT CONDITIONS: first compound 0.04 µM

[
  {
    "MOLECULE": "C[C@@H]1CN(CC(=O)Nc2ccc3c(c2)Cc2cccc(-c4cc(=O)cc(N5CCOCC5)o4)c2S3)C[C@H](C)O1 + CS(=O)(=O)CCNCc1ccc(-c2ccc3ncnc(Nc4ccc(OCc5cccc(F)c5)c(Cl)c4)c3c2)o1 [Lapatinib] (partner 2 µM)",
    "relative viability": 0.732
  },
  {
    "MOLECULE": "COc1cc(N2CCC(C(N)=O)CC2)ccc1Nc1nc(N)c(Cl)c(Nc2ccccc2S(=O)(=O)C(C)C)n1 [HG-5-88-01] + O=C(c1cc(Cc2n[nH]c(=O)c3ccccc23)ccc1F)N1CCN(C(=O)C2CC2)CC1 [Olaparib] (partner 8 µM)",
    "relative viability": 1.07
  },
  {
    "MOLECULE": "C[C@@H]1CN(CC(=O)Nc2ccc3c(c2)Cc2cccc(-c4cc(=O)cc(N5CCOCC5)o4)c2S3)C[C@H](C)O1 + CC(C)C[C@H](NC(=O)[C@H](Cc1ccccc1)NC(=O)c1cnccn1)B(O)O [Bortezomib] (partner 0.002 µM)",
    "relative viability": 1.14
  },
  {
    "MOLECULE": "C[C@@H]1CN(CC(=O)Nc2ccc3c(c2)Cc2cccc(-c4cc(=O)cc(N5CCOCC5)o4)c2S3)C[C@H](C)O1 + NC(=O)Nc1cc(-c2cccc(F)c2)sc1C(=O)N[C@H]1CCCNC1 [AZD7762] (partner 0.2 µM)",
    "relative viability": 0.296
  },
  {
    "MOLECULE": "COc1cc(N2CCC(C(N)=O)CC2)ccc1Nc1nc(N)c(Cl)c(Nc2ccccc2S(=O)(=O)C(C)C)n1 [HG-5-88-01] + CC(C)C[C@H](NC(=O)[C@H](Cc1ccccc1)NC(=O)c1cnccn1)B(O)O [Bortezomib] (partner 0.002 µM)",
    "relative viability": 1.16
  },
  {
    "MOLECULE": "Clc1ccc(Nc2nnc(Cc3ccncc3)c3ccccc23)cc1 [Vatalanib] + CS(=O)(=O)N1CCN(Cc2cc3nc(-c4cccc5[nH]ncc45)nc(N4CCOCC4)c3s2)CC1 [Pictilisib] (partner 1 µM)",
    "relative viability": 0.555
  },
  {
    "MOLECULE": "COc1cc(N2CCC(C(N)=O)CC2)ccc1Nc1nc(N)c(Cl)c(Nc2ccccc2S(=O)(=O)C(C)C)n1 [HG-5-88-01] + O=C(CCCCCCC(=O)Nc1ccccc1)NO [Vorinostat] (partner 1 µM)",
    "relative viability": 0.532
  },
  {
    "MOLECULE": "C[C@@H]1CN(CC(=O)Nc2ccc3c(c2)Cc2cccc(-c4cc(=O)cc(N5CCOCC5)o4)c2S3)C[C@H](C)O1 + CC(=O)Nc1cccc(-n2c(=O)n(C3CC3)c(=O)c3c(Nc4ccc(I)cc4F)n(C)c(=O)c(C)c32)c1 [Trametinib] (partner 0.02 µM)",
    "relative viability": 0.785
  }
]

----------
# System: HOP-62
# ASSAY EXPLANATION: relative viability (nuclei count vs DMSO), 5 days (fraction); higher = more cells survive
# MEASUREMENT CONDITIONS: first compound 0.4 µM

[
  {
    "COMPOUND": "Clc1ccc(Nc2nnc(Cc3ccncc3)c3ccccc23)cc1 [Vatalanib] + C[C@]1(O)C[C@@H](c2nc(-c3ccc4ccc(-c5ccccc5)nc4c3)c3c(N)nccn32)C1 [Linsitinib] (partner 1 µM)",
    "relative viability": 1.02
  },
  {
    "COMPOUND": "C[C@@H]1CN(CC(=O)Nc2ccc3c(c2)Cc2cccc(-c4cc(=O)cc(N5CCOCC5)o4)c2S3)C[C@H](C)O1 + C[C@@H](Oc1cc(-c2cnn(C3CCNCC3)c2)cnc1N)c1c(Cl)ccc(F)c1Cl [Crizotinib] (partner 1 µM)",
    "relative viability": 0.884
  },
  {
    "COMPOUND": "C[C@@H]1CN(CC(=O)Nc2ccc3c(c2)Cc2cccc(-c4cc(=O)cc(N5CCOCC5)o4)c2S3)C[C@H](C)O1 + O=C(CCCCCCC(=O)Nc1ccccc1)NO [Vorinostat] (partner 1 µM)",
    "relative viability": 0.687
  },
  {
    "COMPOUND": "C[C@@H]1CN(CC(=O)Nc2ccc3c(c2)Cc2cccc(-c4cc(=O)cc(N5CCOCC5)o4)c2S3)C[C@H](C)O1 + CS(=O)(=O)CCNCc1ccc(-c2ccc3ncnc(Nc4ccc(OCc5cccc(F)c5)c(Cl)c4)c3c2)o1 [Lapatinib] (partner 2 µM)",
    "relative viability": 1.19
  },
  {
    "COMPOUND": "Clc1ccc(Nc2nnc(Cc3ccncc3)c3ccccc23)cc1 [Vatalanib] + CS(=O)(=O)N1CCN(Cc2cc3nc(-c4cccc5[nH]ncc45)nc(N4CCOCC4)c3s2)CC1 [Pictilisib] (partner 1 µM)",
    "relative viability": 0.632
  }
]
